assayedTarget: T1, soluble human GPNMB (recombinant extracellular domain) (human, UniProt Q14956 23-498)
T1 construct: also called huGPNMB; recombinant human GPNMB extracellular domain; not shown: C-terminal polyhistidine or Avi-His tag
T1 sequence: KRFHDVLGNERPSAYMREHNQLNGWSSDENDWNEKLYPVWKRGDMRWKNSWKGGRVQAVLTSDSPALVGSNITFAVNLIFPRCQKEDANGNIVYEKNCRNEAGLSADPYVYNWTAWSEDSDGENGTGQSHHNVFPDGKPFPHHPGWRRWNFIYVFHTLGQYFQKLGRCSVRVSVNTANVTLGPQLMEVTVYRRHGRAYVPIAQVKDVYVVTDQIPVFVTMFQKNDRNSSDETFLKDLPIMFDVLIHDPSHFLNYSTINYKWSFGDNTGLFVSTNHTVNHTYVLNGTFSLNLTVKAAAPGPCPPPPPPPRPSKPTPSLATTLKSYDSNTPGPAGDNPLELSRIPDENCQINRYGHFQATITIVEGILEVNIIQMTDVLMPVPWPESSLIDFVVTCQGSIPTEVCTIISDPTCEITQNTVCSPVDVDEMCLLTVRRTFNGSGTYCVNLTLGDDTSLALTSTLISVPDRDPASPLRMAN
protocolDetails: SPR Carterra, Ab immobilized
measurementName: kon (M⁻¹ s⁻¹)
The response must be a number in M⁻¹ s⁻¹ with no trailing unit.

# count of solved cases: 2
[
  {
    "binder": "anti-GPNMB antibody GPN-37 (antibody, human IgG1, V domains shown, chimeric) VH: EVQLVESGGGLVQPGRSLKLSCAASGFTFSSKSGMAWVRQAPTKGLEWVASISNGGGDTYYRDSVKGRFTISRDNAKNTQYLQMDSLRPEDTATYYCARHRDYGYDAYFDYWGQGVMVTVSS VL: DIQMTQSPASLSASLGETVTIECLASEDIYSSLAWYQQKPGKSPQLLIYDASSLQDGVPSRFSGSESGTQYSLEINSLQSEDAATYFCQQHHDYPYTFGAGTKLELK",
    "kon [M⁻¹ s⁻¹]": 110000
  },
  {
    "binder": "anti-GPNMB antibody GPN-26 (antibody, human IgG1, V domains shown, chimeric) VH: EVQLQQSGPELVKPGASVKISCKASGYSFTGYYMNWVRQSPEKSLEWIGEINPSTGITTYNQKFKAKATLTVDKSSNTAFMQLKSLTSEDSAVYYCARPASWFDYWGQGTLVTVSA VL: DIQMTQSPSSLSASLGERVSLTCRASQEISGHLSWLQQKPDGTIKRLIYAASTLDSGVPKRFSGSRSGSDYSLTISSLESEDFADYYCLQYASYPYTFGGGTKLEIK",
    "kon [M⁻¹ s⁻¹]": 27000
  }
]

Now examine the next entry.
**Query** Suppose we examine the binder anti-GPNMB antibody GPN-31 (antibody, human IgG1, V domains shown, chimeric) VH: EVQLQQSGPELVKPGASVKISCKASGYSFTGYYMNWVKQSPEKNLEWIGEINPNTGGTTYNQKFKAKATLTVDKSSTTAYMQLKSLTSEDSAVYYCTRPASWFDYWGQGTLVTVSA VL: DIQMTQSPSSLSASLGERVSLTCRASQEISGHLSWLQQKPDGTIKRLIYAASTLDSGVPKRFSGRRSGSDYSLTISSLESEDFADYYCLQYASYPYTFGGGTKLAIK ; what kon value has been reported?
**Result** 26000

These measurements were taken from patent US20250270343A1.
